Cited source: patent US11964988B2

# Experimental system: HEK-293 cells expressing a Kif5b-RET fusion protein (Homo sapiens)
# Construct: KIF5B (N-terminal portion incl. coiled-coil); the other entry of the earlier key: KIF5B (P33176, Kinesin-1 heavy chain)
# Sequence (P07949 713-1063 limits assumed): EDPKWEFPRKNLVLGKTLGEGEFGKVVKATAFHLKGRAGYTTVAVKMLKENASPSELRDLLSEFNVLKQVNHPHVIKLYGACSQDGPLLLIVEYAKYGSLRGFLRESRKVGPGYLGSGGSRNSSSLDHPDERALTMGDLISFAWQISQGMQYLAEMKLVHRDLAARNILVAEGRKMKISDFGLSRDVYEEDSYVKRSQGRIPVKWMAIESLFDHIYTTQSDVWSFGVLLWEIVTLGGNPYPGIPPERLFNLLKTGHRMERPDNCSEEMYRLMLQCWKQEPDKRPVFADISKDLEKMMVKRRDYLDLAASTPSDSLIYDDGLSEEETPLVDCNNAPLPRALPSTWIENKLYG
# Measurement protocol: RET Cell Assay (phospho-RET Tyr1062)
# Study conditions: HEK-293 Kif5b-RET, 1 hour incubation, phospho-RET normalized to GAPDH; read-out: KIF5B-RET pTYR1062 Cell IC50
Recorded endpoint: IC50 (nM)

{"columns": ["Molecule", "IC50 / nM"],
 "data": [
  ["CO[C@@H]1CCc2c(c3c(N)ncnc3n2C(C)C)-c2noc(C3CC3)c21 (single isomer, unassigned)", 49],
  ["CC(C)n1c2c(c3c(N)ncnc31)-c1noc(C3CC3)c1[C@H](O)[C@@H](C)C2 (single isomer, unassigned)", 45]
]}

A. Nc1ncnc2c1c1c(n2C2CCOC2)CCC(O)c2c-1noc2C1CC1 (stereo not shown)
B. CC(C)n1c2c(c3c(N)ncnc31)-c1cc3ccc(C(=O)Nc4ccn(CCN5CCOCC5)n4)cc3n1CCC2
C. Nc1ncnc2c1c1c(n2C2CCCC2)CCC(O)c2c-1noc2C1CC1 (stereo not shown) [Example 120]
D. CC(C)n1c2c(c3c(N)ncnc31)-c1cc3ccc(C(=O)Nc4cnn(C)c4)cc3n1CCC2
E. CNC(=O)c1ccc2cc3n(c2c1)C(=O)NCc1c-3c2c(N)ncnc2n1C(C)C
Input: Put these in order: smallest IC50 first, largest last. Give the order by naming the labels one after another as requested.
Output: C, B, A, D, E

###

# Experimental system: HEK-293 cells expressing a G810S mutant RET Kif5b-RET fusion protein (Homo sapiens, UniProt P07949, G810S)
# Construct: KIF5B (N-terminal portion incl. coiled-coil)
# Sequence (P07949 713-1063 G810S limits assumed): as the sequence (P07949 713-1063 limits assumed) above, with G98S counted along it
# Measurement protocol: RET G810S Mutant Cell Assay (phospho-RET Tyr1062)
# Study conditions: HEK-293 Kif5b-RET G810S, 1 hour incubation, phospho-RET normalized to GAPDH
Recorded endpoint: IC50 (nM)

Observe how each entry below is paired with its result.
{"columns": ["Molecule", "Recorded endpoint", "Unit of measure", "Experimental result"],
 "data": [
  ["CC(C)n1c2c(c3c(N)ncnc31)-c1noc(C3CC3)c1[C@H](O)[C@@H](C)C2 (single isomer, unassigned) [Example 65]", "IC50", "nM", 290],
  ["CC(C)n1c2c(c3c(N)ncnc31)-c1cc3ccc(C(=O)Nc4ccn(CCN5CCOCC5)n4)cc3n1CCC2 [Example 88]", "IC50", "nM", 44]
]}

A. CO[C@@H]1CCc2c(c3c(N)ncnc3n2C2(C)CC2)-c2noc(C3CC3)c21 [Example 151]
B. Nc1ncnc2c1c1c(n2[C@H]2C[C@H](CO)C2)CCC(O)c2c-1noc2C1CC1 (stereo partly shown) [Example 135]
Input: Lower value for measured IC50? Options: A , B When you have decided, please share the label of that item.
Output: A
(A: 57 nM, B: 103 nM)

###

# Experimental system: G810R mutant RET kinase (Homo sapiens, UniProt P07949, G810R);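 also: HTRF KinEASE-TK enzymatic assay with 1 nM recombinant RET G810R, 1 h at 22 °C, dual-wavelength ratiometric readout, 100% control without compound, 0% from pre-quenched reactions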
# Sequence (P07949 29-1114 G810R): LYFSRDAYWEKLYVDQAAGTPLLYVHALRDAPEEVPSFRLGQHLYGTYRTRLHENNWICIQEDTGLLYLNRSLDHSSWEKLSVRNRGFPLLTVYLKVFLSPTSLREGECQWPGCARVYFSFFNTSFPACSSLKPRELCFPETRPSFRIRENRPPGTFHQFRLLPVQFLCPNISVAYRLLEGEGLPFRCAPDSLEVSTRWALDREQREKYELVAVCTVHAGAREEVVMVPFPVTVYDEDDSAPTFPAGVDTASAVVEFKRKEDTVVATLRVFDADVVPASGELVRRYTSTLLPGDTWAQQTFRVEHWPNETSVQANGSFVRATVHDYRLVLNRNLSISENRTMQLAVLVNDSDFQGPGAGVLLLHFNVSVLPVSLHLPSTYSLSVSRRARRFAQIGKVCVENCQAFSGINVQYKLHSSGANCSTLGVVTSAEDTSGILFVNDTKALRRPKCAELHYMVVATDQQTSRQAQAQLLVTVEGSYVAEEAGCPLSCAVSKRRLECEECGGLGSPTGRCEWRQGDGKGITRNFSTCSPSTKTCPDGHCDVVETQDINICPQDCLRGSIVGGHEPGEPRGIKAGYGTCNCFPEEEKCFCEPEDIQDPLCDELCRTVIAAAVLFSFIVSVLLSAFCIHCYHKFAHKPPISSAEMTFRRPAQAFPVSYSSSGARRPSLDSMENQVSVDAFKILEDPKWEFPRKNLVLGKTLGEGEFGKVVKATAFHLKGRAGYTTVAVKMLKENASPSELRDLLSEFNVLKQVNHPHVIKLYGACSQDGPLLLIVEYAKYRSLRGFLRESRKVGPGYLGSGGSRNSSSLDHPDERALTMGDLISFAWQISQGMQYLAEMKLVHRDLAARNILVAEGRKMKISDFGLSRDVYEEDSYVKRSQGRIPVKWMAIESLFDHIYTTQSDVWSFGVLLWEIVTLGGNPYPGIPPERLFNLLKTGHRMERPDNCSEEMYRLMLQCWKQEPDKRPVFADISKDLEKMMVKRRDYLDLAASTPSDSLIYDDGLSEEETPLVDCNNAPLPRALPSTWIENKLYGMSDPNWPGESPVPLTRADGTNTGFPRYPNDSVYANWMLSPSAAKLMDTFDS
# Measurement protocol: biochemical
Recorded endpoint: IC50 (nM)

Some solved entries appear below for comparison.
{"columns": ["Compound", "Unit of measure", "Experimental result"],
 "data": [
  ["CC(C)n1c2c(c3c(N)ncnc31)-c1noc(C3CC3)c1CN(C)C2 [Example 31]", "nM", 1320],
  ["CCC(=O)N1Cc2c(noc2C2CC2)-c2c(n(C(C)C)c3ncnc(N)c23)C1 [Example 37, 2,2,2-trifluoroacetate]", "nM", 1280],
  ["CC(C)n1c2c(c3c(N)ncnc31)-c1noc(C3CC3)c1[C@H](O)[C@@H](C)C2 (single isomer, unassigned) [Example 65]", "nM", 64],
  ["CC(C)(O)[C@H]1C[C@@H](n2c3c(c4c(N)ncnc42)-c2noc(C4CC4)c2C(O)CC3)C1 (stereo partly drawn) [Example 138]", "nM", 272],
  ["COc1ccc2cc3n(c2c1)C(=O)NCc1c-3c2c(N)ncnc2n1C(C)C [Example 79]", "nM", 270]
]}

I. CC(C)n1c2c(c3c(N)ncnc31)-c1cnn(C3CC3)c1C(=O)NC2 [Example 109, 2,2,2-trifluoroacetate]
II. CCCN1Cc2c(c3c(N)ncnc3n2C(C)C)-c2noc(C3CC3)c2C1=O [Example 4]
III. CC(C)n1c2c(c3c(N)ncnc31)-c1noc(C3CC3)c1S(=O)(=O)NC2 [Example 21, 2,2,2-trifluoroacetate]
Input: Ordering criterion: IC50; begin with the maximum. Kindly provide the labels arranged according to the requested ordering.
Output: I, II, III

a. CC1(n2c3c(c4c(N)ncnc42)-c2noc(C4CC4)c2C(O)CC3)CC1 (stereo not drawn) [Example 149]
b. CC(C)n1c2c(c3c(N)ncnc31)-c1cc3ccc(C(F)(F)F)cc3n1C(=O)NC2 [Example 82]
Input: Between the two listed entries a and b , which has its IC50 at the higher number? Which one? Tell me its label.
Output: b

I. CC(C)n1c2c(c3c(N)ncnc31)-c1cc3c(F)cccc3n1C(=O)NC2 [Example 83]
II. CC(C)n1c2c(c3c(N)ncnc31)-c1cc3ccc(C(=O)Nc4ccccn4)cc3n1CCC2 [Example 90]
Input: Select the item with the higher value of IC50 from the options I and II listed. Reply briefly: the label of your chosen item.
Output: II
(II: 1060 nM, I: 58 nM)

I. CC(C)n1c2c(c3c(N)ncnc31)-c1noc(C3CC3)c1CN(S(C)(=O)=O)C2 [Example 35, 2,2,2-trifluoroacetate]
II. Nc1ncnc2[nH]c3c(c12)-c1noc(C2CC2)c1C(=O)CC3 [Example 111]
III. CO[C@@H]1CCc2c(c3c(N)ncnc3n2C(C)C)-c2noc(C3CC3)c21 (single isomer, unassigned) [Example 58]
Input: Parameters: sort_field (IC50), sort_dir (desc). // respond by listing labels in the order requested
Output: II, I, III
